- Test: PFAA concentration in serum of occupational workers (HPLC-ESI/MS/MS)
- Type: in vivo, human
- Condition: human, serum, other: occupational exposure, 46 workers sampled at least three times, 2012; read-out: Serum concentration, GM
Quantity name: concentration at 2012 calendar year (ng/mL)
Give bare numbers, in ng/mL.

> print(dat)
                                   compound                        quantity.name  unit.abbrev  test.value
1  O=C(O)C(F)(F)C(F)(F)C(F)(F)C(F)(F)C(F)(F)C(F)(F)C(F)(F)F  concentration at 2012 calendar year        ng/mL         416

Next up:
Data request: concentration at 2012 calendar year for O=S(=O)(O)C(F)(F)C(F)(F)C(F)(F)C(F)(F)C(F)(F)C(F)(F)F [PFHxS, perfluorohexane sulfonate] ?
Data returned: 1670
